Record form. Attribute: MIC. Fill in for each entry.
- Test system: C. auris clinical strains
- ASSAY COMMENT: organism not typed
- Assay type: cell-based, Candida auris
- EXPERIMENTAL SETUP: range, 78 strains from patients with COVID-19
Starred links: 1 amine or outer side, 2 acyl side, 3 side chain; linkers in the order of their positions; H or OH if unused. Positions of bridges follow the written chain, without caps; N, C: chain ends. Non-standard residues stand in square brackets, D forms with d. Residues, ends and D or L forms follow the SMILES beside them. *: point of attachment. hTyr(3S-OH,4S-OH,3'-OSO3H) = N[C@H](C(=O)O)[C@H](O)[C@@H](O)c1ccc(O)c(OS(=O)(=O)O)c1; Orn(4R-OH,5R-OH) = O=C([C@H](C[C@@H](O)[C@@H](O)N[*:3])N[*:1])[*:2]; Pro(3S-OH,4S-Me) = C[C@H]1CN[C@H](C(=O)O)[C@H]1O; X1 = CCCCCOc1ccc(-c2cc(-c3ccc(C(=O)*)cc3)no2)cc1; Gln(3R-OH) = NC(=O)C[C@@H](O)[C@H](N)C(=O)O; Hyp = O=C(O)[C@@H]1C[C@@H](O)CN1

Prompt: Dear colleague, I am looking for the recorded MIC of the following compound: C[C@@H]1[C@H](O)[C@@H](C)/C=C/C=C/C=C/C=C/C=C/C=C/C=C/[C@H](O[C@@H]2O[C@H](C)[C@@H](O)[C@H](N)[C@@H]2O)C[C@@H]2O[C@](O)(C[C@@H](O)C[C@@H](O)[C@H](O)CC[C@@H](O)C[C@@H](O)CC(=O)O[C@H]1C)C[C@H](O)[C@H]2C(=O)O
Response: 0.12 to 2 mg/L

Prompt: Dear colleague, I am looking for the recorded MIC of the following compound: CCC(C)n1ncn(-c2ccc(N3CCN(c4ccc(OCC5COC(Cn6cncn6)(c6ccc(Cl)cc6Cl)O5)cc4)CC3)cc2)c1=O (stereo not shown)
Response: 0.12 to 16 mg/L

Prompt: Dear colleague, I am looking for the recorded MIC of the following compound: CC[C@@H]([C@H](C)O)n1ncn(-c2ccc(N3CCN(c4ccc(OC[C@@H]5CO[C@@](Cn6cncn6)(c6ccc(F)cc6F)C5)cc4)CC3)cc2)c1=O
Response: 0.06 to 8 mg/L

Prompt: Dear colleague, I am looking for the recorded MIC of the following compound: CCCCCOc1ccc(-c2cc(-c3ccc(C(=O)N[C@H]4C[C@@H](O)[C@@H](O)NC(=O)[C@@H]5[C@@H](O)[C@@H](C)CN5C(=O)[C@H]([C@H](O)CC(N)=O)NC(=O)[C@H]([C@H](O)[C@@H](O)c5ccc(O)c(OS(=O)(=O)O)c5)NC(=O)[C@@H]5C[C@@H](O)CN5C(=O)[C@H]([C@@H](C)O)NC4=O)cc3)no2)cc1 [micafungin] (X1-[Orn(4R-OH,5R-OH)]T[Hyp][hTyr(3S-OH,4S-OH,3'-OSO3H)][Gln(3R-OH)][Pro(3S-OH,4S-Me)]; lactam 1-C)
Response: 0.06 to 1 mg/L
